method.summary: Equilibrium surface tension, Wilhelmy plate method (CMC, γcmc, Amin and derived quantities)
Format: physicochemical
experimental.context: T = 25 °C (T > Tk)
We label by threshold. Values of CMC strictly beneath 8 mM are Met. Values of 8 mM and up are Not met.

>>> assigned_class("CCCCCC(=O)OC[C@H]1O[C@H](OC)[C@H](O)[C@@H](O)[C@@H]1O [MeαGlcO(C=O)C5, Methyl 6-O-hexanoyl-α-D-glucopyranoside]")
"Not met"
>>> assigned_class("CCCCCCOC(=O)[C@H]1O[C@H](OC)[C@H](O)[C@@H](O)[C@@H]1O [MeαGlc(C=O)OC6]")
"Not met"
>>> assigned_class("CCCCCCCC(=O)OC[C@H]1O[C@@H](OC)[C@H](O)[C@@H](O)[C@H]1O [MeβGalO(C=O)C7]")
"Not met"
>>> assigned_class("CCCCCCCCCCCCOC(=O)[C@H]1O[C@H](OC)[C@H](O)[C@@H](O)[C@@H]1O [MeαGlc(C=O)OC12]")
"Met"

Proceed to the following item.
Hello, I'm reviewing records and need to know if CMC of CCCCCCCCCCOC(=O)[C@H]1O[C@H](OC)[C@H](O)[C@@H](O)[C@@H]1O [MeαGlc(C=O)OC10] is below 8 mM. Could you check?
Met

The reported numbers originate from paper PMC11123692.
